Hello, the source for this data is patent US5780589A, in case you need it.

Tested target: δ receptors (Mus musculus)
Sequence (P32300 whole entry): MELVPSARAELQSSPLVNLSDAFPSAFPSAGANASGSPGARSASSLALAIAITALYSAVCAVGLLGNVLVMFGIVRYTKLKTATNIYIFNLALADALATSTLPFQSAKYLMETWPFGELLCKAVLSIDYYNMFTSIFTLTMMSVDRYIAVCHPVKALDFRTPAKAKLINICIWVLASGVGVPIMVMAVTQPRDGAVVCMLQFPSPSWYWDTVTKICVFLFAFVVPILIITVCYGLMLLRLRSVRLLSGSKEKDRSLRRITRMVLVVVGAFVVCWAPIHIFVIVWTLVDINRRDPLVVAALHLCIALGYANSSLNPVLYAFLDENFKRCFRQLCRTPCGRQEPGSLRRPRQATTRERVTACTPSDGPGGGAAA
Conditions: concentration equivalent of pA2, against deltorphin C
Experimental: The in vitro pharmacological assays were undertaken using published methods (32) based on the organ bath technique of Kosterlitz and Watt (50). For μ receptors, a 2-3 cm segment of guinea-pig ileum (GPI) mounted in a 20 mL organ bath and for δ receptors, a single mouse vas deferens (MVD) was obtained from a mature animal.
Non-standard residues stand in square brackets, D forms with d. Residues, ends and D or L forms follow the SMILES beside them. Dmt = Cc1cc(O)cc(C)c1C[C@H](N)C(=O)O; Tic = O=C(O)[C@@H]1Cc2ccccc2CN1
Value type: MVD (nM)
Kindly provide the numeric value in nM only, without the unit symbol.

Take a look at these entries with their results.
1. Oc1ccc2c3c1O[C@H]1c4[nH]c5ccccc5c4C[C@@]4(O)[C@@H](C2)N(CC2CC2)CC[C@]314 [Naltrindole, naltrindole, reference compound] : 0.7
2. Cc1cc(O)cc(C)c1C[C@H](N)C(=O)N1Cc2ccccc2C[C@H]1C(=O)O [Peptide 1, Dmt-Tic-OH] (H-[Dmt]-[Tic]-OH; N-terminus assumed) : 5.7
3. Cc1cc(O)cc(C)c1C[C@H](N)C(=O)N1Cc2ccccc2C[C@H]1CO [Peptide 5, Dmt-Tic--CH2 OH] : 6.6

Now turn to the next compound.
Recall and state the measured MVD for Cc1cc(O)cc(C)c1C[C@H](N)C(=O)N1Cc2ccccc2C[C@H]1C(N)=O [Peptide 2, Dmt-Tic-NH2] (H-[Dmt]-[Tic]-NH2; N-terminus assumed) . 4.2
